# Tested on: MCF7 breast
# Assay name: NCI-60 one-dose screen, 48 h (100 = growth as untreated, 0 = no growth, -100 = all killed)
# Test settings: 10 µM unless noted
Compounds without any hit were thinned out: in the full panel of roughly 83,000, 20% have a hit.
Mark each entry t if its growth sits below 40%, and f for all others.

Some solved entries appear below for comparison.
[
  {
    "Smiles text": "CCCCCCCCCCCCCCCC[N+]1(CC)CCCC1",
    "Cat": "t"
  },
  {
    "Smiles text": "C[C@H](CCC(=O)O)[C@H]1CC[C@H]2[C@@H]3CC[C@@H]4/C(=C\\c5ccco5)C(=O)/C(=C\\c5ccco5)C[C@]4(C)[C@H]3CC[C@]12C",
    "Cat": "t"
  },
  {
    "Smiles text": "Cc1cc2cc3cc(C)c(N(C)C)cc3nc2cc1N(C)C",
    "Cat": "t"
  },
  {
    "Smiles text": "CCCCCCCCCC(=O)Oc1ccc(/C(=C(/C)c2ccccc2)c2ccc(OCCN3CCCC3)cc2)cc1",
    "Cat": "t"
  },
  {
    "Smiles text": "CCCCN(CCCC)Cc1c(C)[nH]c2cc(OC)ccc2c1=O",
    "Cat": "f"
  },
  {
    "Smiles text": "COc1cccc(-n2cc(-c3nc(Nc4cc(C)[nH]n4)c4ccccc4n3)nn2)c1",
    "Cat": "t"
  },
  {
    "Smiles text": "CN1CCOCCOCCOc2ccccc2NC(=O)c2nc(cnc2N)-c2ccc(cc2)S1(=O)=O",
    "Cat": "t"
  },
  {
    "Smiles text": "c1ccc2sc(SCCCn3ccnc3)nc2c1",
    "Cat": "f"
  }
]

For `CN(C)CCOc1ccc(-c2nc3ccc(-c4nc5ccc(N6CCN(C)CC6)cc5[nH]4)cc3[nH]2)cc1` , is the recorded growth below the cut-off of 40%?
t

Hello, is growth of the following compound strictly smaller than 40%? `C/C=C/C(N)=O`
f
